# assay target: TJP1_2, Q07157
# Sequence (Q07157 181-274): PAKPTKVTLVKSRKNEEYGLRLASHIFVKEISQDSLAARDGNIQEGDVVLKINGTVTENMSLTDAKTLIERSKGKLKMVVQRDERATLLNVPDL
# assay text: holdup assay
# Design: key: below the threshold = too weak to quantify, mostly under pKd 3.1 to 4
# recorded conditions: plain residues with an end cap or a label only (N-terminal biotin on a linker: ado-ado)
assay metric: pKd

Below, 10 binders whose answers are already recorded.
                         binder  assay_metric       reported_value
0  KKTPVSRSHL [SLC22A3, O75751]           pKd  below the threshold
1  IKLETKKTKL [SLC15A2, Q16348]           pKd  below the threshold
2     EFKQTSSFLV [JAM1, Q9Y624]           pKd                 4.01
3    KEKASTETEC [TRPM1, Q7Z4N2]           pKd  below the threshold
4  WAKEKQHTRL [SLC17A1, Q14916]           pKd  below the threshold
5    QQGLLPHSSC [TYRO3, Q06418]           pKd  below the threshold
6     HDDYFYHDEL [RCN2, Q14257]           pKd  below the threshold
7    PALKNGQYWV [CSPG4, Q6UVK1]           pKd                 4.69
8    RGKNRRQSIF [CDK18, Q07002]           pKd  below the threshold
9    QRYPGNQTTC [CCL24, O00175]           pKd  below the threshold

Moving on to the next binder.
Request the reported pKd associated with SQDPKKPSRV [CBY2, Q8NA61]
below the threshold
